The values you see were collected from ChEMBL document CHEMBL1201862.

Readings of GI50 for the listed compounds
Test system: U-251
procedure text: NCI tumour cell line growth inhibition, 48 h
Active and inactive are the calls of the source. Rule as the data show it: active = GI50 up to about 1.1 µM and inactive = higher.
measured quantity: GI50

CC/C(Cl)=N\OC(=O)Nc1ccc(OC)cc1 :: 19.5 µM (inactive)
CC(=O)OC1C/C(C)=C/CCC(C)/C=C/C2(C)CCC(C(C)(C)O)C12 (configuration not stated) :: 39.4 µM (inactive)
O=C(CN1CCN(Cc2ccccc2)CC1)c1ccc2[nH]c(=O)oc2c1 :: > 88.7 µM (inactive)
Cc1cccc(C(C)(C)C)c1NC(=O)CCl :: > 100 µM (inactive)
COc1c(Cl)ccc(Cl)c1-c1nnc(-c2c(Cl)c(Cl)c(Cl)c(Cl)c2-c2nc3cc(C(=O)c4ccccc4)ccc3[nH]2)o1 :: 61 µM (inactive)
COc1ccc(C(=O)C(c2ccc(OC)cc2)C2(O)C(=O)Nc3ccccc32)cc1 (configuration not stated) :: > 100 µM (inactive)
COc1cccc2c1C(=O)c1c(O)c3c(c(O)c1C2=O)C[C@@](O)(C(=O)CO)C[C@@H]3OC1CC(N(C)C)C(O)C(C)O1 (some centres not stated) :: < 0.0134 µM (active)
CSC(=S)N(C)NC(=O)c1cccc(C(=O)NN(C)C(=S)SC)n1 :: 18.6 µM (inactive)
CN(C)CCC(=O)c1ccccc1 :: > 56.2 µM (inactive)
Fc1ccc(OCc2nc3cc(C(F)(F)F)ccc3nc2-c2ccccc2)cc1 :: > 100 µM (inactive)
O=c1[nH]c(=O)n(C2CC(O)C(CO)O2)cc1/N=N/NCCc1ccccc1 (configuration not stated) :: > 100 µM (inactive)
COc1c(-c2ccccc2)nc2ccc(Oc3ccccc3)nn12 :: > 80.5 µM (inactive)
C[C@H]1[C@@H](c2ccccc2)O[B-](c2ccccc2)(c2ccccc2)[N+]1(C)C :: > 100 µM (inactive)
NC(=O)NCc1c(C(N)=O)ncn1Cc1ccccc1 :: > 100 µM (inactive)
Cc1ccc(/C=C/C(=O)C(C)C)cc1 :: 24.5 µM (inactive)
CC1(C)CC[C@]2(C)[C@@H](O)C[C@]3(C)C(=CC[C@@H]4[C@@]5(C)CC[C@H](O)C(C)(C)[C@@H]5CC[C@]43C)[C@@H]2C1 :: 28.7 µM (inactive)
O=C(Nc1ccc2oc(=O)c(C(=O)O)cc2c1)Oc1ccccc1 :: > 100 µM (inactive)

----------
Here, each record is paired with measured GI50 data.
System: SK-MEL-5
procedure text: NCI tumour cell line growth inhibition, 48 h
Activity calls are given as the source filed them. No stated cut-off is given here; in the data, active = GI50 up to about 1.1 µM and inactive = higher.
measured quantity: GI50

COC(=O)c1ccccc1C1CN=NC12Cc1cc3c(cc1C2=O)CCC3 (centres undefined) :: 21.6 µM (inactive)
CCn1c2ccccc2c2ccc3c(c21)C(=O)c1ccccc1C3=O :: 76.6 µM (inactive)
COC(C)(C)[C@@H]1CCCN1C1=C(C)C(=O)OC1 :: > 100 µM (inactive)
CN(/N=C/c1cccs1)c1ccc([N+](=O)[O-])cc1[N+](=O)[O-] :: > 100 µM (inactive)
C[C@H]1[C@@H](c2ccccc2)O[B-](c2ccccc2)(c2ccccc2)[N+]1(C)C :: 28.1 µM (inactive)
O=C(/C=C/c1cccs1)c1ccccc1Cl :: 16.4 µM (inactive)
Cc1ccc(C2SCC(=O)N2c2ccc(-n3c(-c4ccccc4)nc4ccccc4c3=O)cc2)cc1 (centres undefined) :: 11.6 µM (inactive)
CC(=O)NNC(=S)N/C=C1/C(=O)C=C(C)OC1=O :: > 100 µM (inactive)
CC(=O)OCC(OC(C)=O)C(OC(C)=O)C(OC(C)=O)C(/C=N\Nc1nc2ccccc2c(=O)[nH]1)OC(C)=O (centres undefined) :: > 100 µM (inactive)
